- assay-notes: Inhibition of choline kinase in human HepG2 cells assessed as incorporation of [14C] from [methyl-14C]choline into phosphocholine after 20 mins by liquid scintillation counting analysis
- Type: cell-based
quantity-name: IC50 (nM)

                         structure_notation  readout_units  numeric_readout
0  CN(c1ccc(Cl)cc1)c1cc[n+](Cc2ccc(C[n+]3ccc(N4CCCC4)cc3)cc2)cc1             nM              600
1  CN(c1ccc(Cl)cc1)c1cc[n+](Cc2ccc(CCc3ccc(C[n+]4ccc(N5CCCC5)cc4)cc3)cc2)cc1.[Br-].[Br-]             nM             2500
2  CN(C)c1cc[n+](Cc2ccc(CCCCc3ccc(C[n+]4ccc(N5CCCC5)cc4)cc3)cc2)cc1.[Br-].[Br-]             nM              900
3  CN(C)c1cc[n+](Cc2ccc(C[n+]3ccc(N4CCCC4)cc3)cc2)cc1             nM             8000
4  CN(C)c1cc[n+](Cc2ccc(CCc3ccc(C[n+]4ccc(N(C)c5ccc(Cl)cc5)cc4)cc3)cc2)cc1.[Br-].[Br-]             nM              700
5  CN(C)c1cc[n+](Cc2ccc(CCCCc3ccc(C[n+]4ccc(N(C)c5ccc(Cl)cc5)cc4)cc3)cc2)cc1.[Br-].[Br-]             nM             1200
6  CN(c1ccc(Cl)cc1)c1cc[n+](Cc2ccc(CCCCc3ccc(C[n+]4ccc(N5CCCC5)cc4)cc3)cc2)cc1.[Br-].[Br-]             nM             1500
7  CN(C)c1cc[n+](Cc2ccc(C[n+]3ccc(N(C)c4ccc(Cl)cc4)cc3)cc2)cc1             nM              900

====

- assay-notes: Inhibition of choline kinase in human HepG2 cells assessed as incorporation of [14C] from [methyl-14C]choline into phosphocholine after 20 mins by liquid scintillation counting analysis
- Assay type: cell-based
pIC50: −log10 of the molar value.
quantity-name: pIC50

                         structure_notation  quantity_name  numeric_readout
0  CN(c1ccc(Cl)cc1)c1cc[n+](Cc2ccc(-c3ccc(C[n+]4ccc(N5CCCC5)cc4)cc3)cc2)cc1.[Br-].[Br-]          pIC50             5.66
1  CN(C)c1cc[n+](Cc2ccc(-c3ccc(C[n+]4ccc(N5CCCC5)cc4)cc3)cc2)cc1.[Br-].[Br-]          pIC50             6.10
2  CN(C)c1cc[n+](Cc2ccc(-c3ccc(C[n+]4ccc(N(C)c5ccc(Cl)cc5)cc4)cc3)cc2)cc1          pIC50             5.82
3  CN(C)c1cc[n+](Cc2ccc(CCc3ccc(C[n+]4ccc(N5CCCC5)cc4)cc3)cc2)cc1.[Br-].[Br-]          pIC50             5.92

====

- assayed-system: Choline kinase alpha (Homo sapiens, UniProt P35790)
- Sequence (P35790 whole entry): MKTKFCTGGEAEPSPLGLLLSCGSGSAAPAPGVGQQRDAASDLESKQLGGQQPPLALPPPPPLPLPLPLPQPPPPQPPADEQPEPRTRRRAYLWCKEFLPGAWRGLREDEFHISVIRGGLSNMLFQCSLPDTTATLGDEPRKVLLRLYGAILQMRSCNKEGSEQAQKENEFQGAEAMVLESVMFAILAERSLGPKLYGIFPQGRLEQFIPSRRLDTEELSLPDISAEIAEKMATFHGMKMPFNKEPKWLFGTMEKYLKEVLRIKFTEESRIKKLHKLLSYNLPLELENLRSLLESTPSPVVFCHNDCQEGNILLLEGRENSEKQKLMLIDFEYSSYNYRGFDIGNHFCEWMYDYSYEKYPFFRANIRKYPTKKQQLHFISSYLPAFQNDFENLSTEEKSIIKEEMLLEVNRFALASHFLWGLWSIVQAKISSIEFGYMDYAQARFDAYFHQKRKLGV
pKd: −log10 of the molar value.
quantity-name: pKd

In [3]: df
Out[3]:
                         structure_notation                            assayed_system  quantity_name  numeric_readout
0  CN(C)c1cc[n+](Cc2ccc(CCc3ccc(C[n+]4ccc(N5CCCC5)cc4)cc3)cc2)cc1.[Br-].[Br-]  Choline kinase alpha (Homo sapiens, UniProt P35790)            pKd             6.40
